system: Yap1 mRNA; test: Dose-dependent inhibition of human Yap1 in A-431 cells (Example 8, 10,000 cells per well, RTS4814); assay type: cell-based; details: A-431 cells; Yap1 mRNA
Strand notation (5' to 3'): a small letter for the sugar, then the base; units joined by * are phosphorothioate-linked, units joined directly phosphodiester-linked; [ ] holds rarer units or linkages, { } end groups; capitals alone tell only the bases. k = constrained ethyl (cEt); [5mC] = 5-methylcytosine; d = 2'-deoxy (DNA)
Result type: pIC50
Units for pIC50: none; it is -log10 of a concentration expressed in mol/L.

Below, 4 substances whose answers are already recorded.
Substance	Tested on	pIC50
1076085 (kA*k[5mC]*kT*dA*dA*dT*dA*dG*dG*d[5mC]*d[5mC]*dA*dT*k[5mC]*kT*kG; antisense) [compound 1076085]	Yap1 mRNA	7.00
1076119 (kG*kT*kT*dA*dA*dA*dT*dA*dT*dG*dA*dA*dT*kT*kG*kG; antisense) [compound 1076119]	Yap1 mRNA	7.00
1074487 (kA*kG*kA*dT*dT*d[5mC]*dA*d[5mC]*dT*dA*dA*dT*dA*kT*kG*kG; antisense) [compound 1074487]	Yap1 mRNA	7.00
1076340 (antisense kT*kA*kA*dT*dA*dT*d[5mC]*d[5mC]*dT*d[5mC]*dA*dT*d[5mC]*kA*kG*k[5mC]) [compound 1076340]	Yap1 mRNA	7.00

Name the reported pIC50 value associated with the substance 1076471 (k[5mC]*kA*kT*dT*dA*dG*dA*d[5mC]*dT*dA*dG*dG*d[5mC]*kT*kT*kT; antisense) [compound 1076471] 7.30

====

A collection of substances and their measured YAP1 (% UT)
Test system: Yap1 mRNA
Assay: Antisense inhibition of human Yap1 in SNU-449 cells by modified oligonucleotides, single dose (Example 5, RTS36584)
Format: cell-based
Settings: Table 51; Yap1 mRNA remaining as percent of untreated control (UT), SNU-449 cells, single dose
Method: Modified oligonucleotides with additional chemistry modifications were designed to target a Yap1 nucleic acid and were tested for their effect on Yap1 mRNA level in SNU-449 cells. […] After a treatment period of approximately 48 hours, RNA was isolated from the cells and Yap1 mRNA levels were measured by quantitative real-time RTPCR. […] Yap1 mRNA levels were normalized to total RNA content, as measured by RIBOGREEN®. […]
Strand notation (5' to 3'): a small letter for the sugar, then the base; units joined by * are phosphorothioate-linked, units joined directly phosphodiester-linked; [ ] holds rarer units or linkages, { } end groups; capitals alone tell only the bases. k = constrained ethyl (cEt); [5mC] = 5-methylcytosine; d = 2'-deoxy (DNA); m = 2'-O-methyl
Write it as a number; the unit % UT goes unstated.

Substance	YAP1 (% UT)
1197250 (antisense kT*kT*kG*dG*mA*dA*dG*dA*dT*d[5mC]*dT*dG*dA*kA*kA*k[5mC]) [Compound 1197250]	60
1197268 (kA*kA*kG*dT*mG*dT*dA*dT*dG*dT*d[5mC]*dA*dG*kA*kA*kG) [Compound 1197268]	25
1197241 (antisense kA*k[5mC]*kT*dG*mA*dG*dG*dT*dA*dT*dA*dA*d[5mC]*kT*kG*kG) [Compound 1197241]	19
1200797 (kA*kT*kT*dA*dG*mA*dG*dT*dA*dT*dG*dT*dG*kG*k[5mC]*kA; antisense) [Compound 1200797]	11
1197265 (kT*kA*kA*dT*mA*dT*dT*dG*d[5mC]*dA*dA*dT*d[5mC]*kT*kG*kT) [Compound 1197265]	103

Name the reported YAP1 (% UT) value associated with the substance 1197309 (kG*kT*kA*dA*mU*dA*dT*dT*dG*d[5mC]*dA*dA*dT*k[5mC]*kT*kG; antisense) [Compound 1197309] 11

Name the reported YAP1 (% UT) value associated with the substance 1197312 (kT*kG*kT*dA*mU*dG*dT*d[5mC]*dA*dG*dA*dA*dG*kA*kG*kT; antisense) [Compound 1197312] 10
